# Test system: ATP;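 also: ATP exposure 15 min at 22 °C before imaging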
# Assay Remarks: switch fluorescence ratio, 500 uM ATP over buffer (Cy3 cluster intensity, sum of 5 cycles each) (fold (ratio)); higher = stronger signal-on switching upon ATP binding; sequences stand for … in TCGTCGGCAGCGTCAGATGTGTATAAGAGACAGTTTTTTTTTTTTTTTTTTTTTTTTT…TC
# Condition Context: aptamer strand: ATP DNA aptamer (quencher-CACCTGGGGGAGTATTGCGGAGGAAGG + anchor), 100 nM annealed; ATP concentration: 500 uM
Metric Name: switch fluorescence ratio

[[record]]
residue_codes = "GAGGGTGAGT"
target = "ATP"
metric_name = "switch fluorescence ratio"
assay_result = 0.981

[[record]]
residue_codes = "TTTGTAGAGC"
target = "ATP"
metric_name = "switch fluorescence ratio"
assay_result = 1.05

[[record]]
residue_codes = "GGGGTCAGGT"
target = "ATP"
metric_name = "switch fluorescence ratio"
assay_result = 1

[[record]]
residue_codes = "AGTCATAAAG"
target = "ATP"
metric_name = "switch fluorescence ratio"
assay_result = 0.984

[[record]]
residue_codes = "AAAAGGATGG"
target = "ATP"
metric_name = "switch fluorescence ratio"
assay_result = 0.979

[[record]]
residue_codes = "GCTAATGGTC"
target = "ATP"
metric_name = "switch fluorescence ratio"
assay_result = 0.977

[[record]]
residue_codes = "CTTCGTGGCC"
target = "ATP"
metric_name = "switch fluorescence ratio"
assay_result = 1.04


###

# Test system: ATP;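 also: ATP exposure 15 min at 22 °C before imaging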
# Assay Remarks: switch fluorescence ratio, 500 uM ATP over buffer (Cy3 cluster intensity, sum of 5 cycles each) (fold (ratio)); higher = stronger signal-on switching upon ATP binding; sequences stand for … in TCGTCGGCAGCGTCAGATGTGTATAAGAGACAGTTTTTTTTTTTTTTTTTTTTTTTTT…TC
# Condition Context: aptamer strand: ATP DNA aptamer (quencher-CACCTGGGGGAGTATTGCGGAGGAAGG + anchor), 100 nM annealed; ATP concentration: 500 uM
Recorded switch fluorescence ratio for the following sequences
Metric Name: switch fluorescence ratio

[[record]]
residue_codes = "CCGGGGAACA"
target = "ATP"
assay_result = 1

[[record]]
residue_codes = "ATAAGTGAAT"
target = "ATP"
assay_result = 1.01

[[record]]
residue_codes = "AATTACTGG"
target = "ATP"
assay_result = 1

[[record]]
residue_codes = "ATTTTTTGGT"
target = "ATP"
assay_result = 0.998

[[record]]
residue_codes = "GGTTTAGGCC"
target = "ATP"
assay_result = 0.991

[[record]]
residue_codes = "ATAGGCTATA"
target = "ATP"
assay_result = 0.976

[[record]]
residue_codes = "CAGTTATTGG"
target = "ATP"
assay_result = 0.978

[[record]]
residue_codes = "GGGGCGGATT"
target = "ATP"
assay_result = 0.984

[[record]]
residue_codes = "TGTTTATCGG"
target = "ATP"
assay_result = 0.998

[[record]]
residue_codes = "ATCGTTGTGG"
target = "ATP"
assay_result = 0.989

[[record]]
residue_codes = "TATATATCAA"
target = "ATP"
assay_result = 1

[[record]]
residue_codes = "ATGGGGGTAA"
target = "ATP"
assay_result = 1.01

[[record]]
residue_codes = "ATTATGGGGG"
target = "ATP"
assay_result = 0.996

[[record]]
residue_codes = "CCGTTTTTAT"
target = "ATP"
assay_result = 1.01

[[record]]
residue_codes = "TAGTTGGTCG"
target = "ATP"
assay_result = 1.02

[[record]]
residue_codes = "CGTTGGGGCA"
target = "ATP"
assay_result = 1

[[record]]
residue_codes = "CAGCTTGATA"
target = "ATP"
assay_result = 0.979

[[record]]
residue_codes = "TGATGCAGTT"
target = "ATP"
assay_result = 1.01

[[record]]
residue_codes = "CCCTAGGATT"
target = "ATP"
assay_result = 1.01

[[record]]
residue_codes = "GGGGGGAGCA"
target = "ATP"
assay_result = 0.992

[[record]]
residue_codes = "CTGATGGGGT"
target = "ATP"
assay_result = 1

[[record]]
residue_codes = "TTCCCTGTTT"
target = "ATP"
assay_result = 1.01

[[record]]
residue_codes = "TCTGGGACGT"
target = "ATP"
assay_result = 0.982

[[record]]
residue_codes = "AACTTTGCAG"
target = "ATP"
assay_result = 1.02

[[record]]
residue_codes = "TAGGGCCACG"
target = "ATP"
assay_result = 1.01

[[record]]
residue_codes = "TGTTTTCGGT"
target = "ATP"
assay_result = 0.99

[[record]]
residue_codes = "GGGAAGTTCA"
target = "ATP"
assay_result = 1

[[record]]
residue_codes = "TTCTAATTTT"
target = "ATP"
assay_result = 0.995

[[record]]
residue_codes = "CCAGTAAAAT"
target = "ATP"
assay_result = 1.01

[[record]]
residue_codes = "TCATGGTTG"
target = "ATP"
assay_result = 1.01

[[record]]
residue_codes = "GTTACAGGTC"
target = "ATP"
assay_result = 1.01

[[record]]
residue_codes = "GAGTCAAGGG"
target = "ATP"
assay_result = 0.998


Source listed as the supplement of paper PMC10126150.
